molecular target: full-length human RORγt (Homo sapiens (Human)); test: RORγt (full-length human) reporter assay, Conditions B or C; format: cell-based; conditions: read-out: RORγt (FL) Reporter Assay B or C, IC50
Sequence (P51449 other isoform, or with tags, fused parts or gaps): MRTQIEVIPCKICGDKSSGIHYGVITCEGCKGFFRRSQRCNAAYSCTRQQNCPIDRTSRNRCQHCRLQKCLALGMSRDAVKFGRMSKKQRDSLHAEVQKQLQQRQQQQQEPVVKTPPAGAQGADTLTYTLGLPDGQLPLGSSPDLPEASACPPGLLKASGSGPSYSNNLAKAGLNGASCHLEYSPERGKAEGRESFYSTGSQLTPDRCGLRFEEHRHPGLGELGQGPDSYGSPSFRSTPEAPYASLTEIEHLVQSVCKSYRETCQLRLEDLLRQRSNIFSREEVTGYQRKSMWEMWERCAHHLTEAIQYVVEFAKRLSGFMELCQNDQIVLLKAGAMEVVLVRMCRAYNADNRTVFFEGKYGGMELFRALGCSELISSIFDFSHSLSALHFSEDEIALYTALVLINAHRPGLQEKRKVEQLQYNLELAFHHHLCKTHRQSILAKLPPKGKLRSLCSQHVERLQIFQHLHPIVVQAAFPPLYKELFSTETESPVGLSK
Exercise: state measured pIC50 for each of the molecules provided.
Answers are plain numbers, as −log10 of the molar value.

Study these solved cases before continuing.
C[C@H]1CCCN1C(=O)c1nc(C(=O)NCC(C)(C)O)sc1-c1cnc(N[C@H]2CCCC2(F)F)cc1C(F)(F)F (single isomer, unassigned) | 7.21
CC[C@H](Nc1cc(C(F)F)c(-c2sc(C(=O)N[C@H]3CC[C@@H]3O)nc2C(=O)N2C3CCC2CC3)cn1)C(F)(F)F (relative stereo) | 7.09
CC[C@H](Nc1cc(C(F)F)c(-c2sc(C(=O)NC3CCC3O)nc2C(=O)N2CCC[C@@H]2C)cn1)C(F)(F)F (stereo partly shown) [Example 375] | 7.54
C[C@H]1CCCN1C(=O)c1nc(C(=O)N2CC3(COC3)C2)sc1-c1cnc(NC(C)(C)C)cc1C(F)(F)F | 8.12
C[C@H]1CCCN1C(=O)c1nc(C(=O)NCC(C)(C)O)sc1-c1cnc(NC(C)(C)C)cc1C(F)F | 7.12
C[C@H]1CCCN1C(=O)c1nc(C(=O)NCC(C)(C)O)sc1-c1cnc(NC(C2CC2)C(F)(F)F)cc1C(F)F (stereo partly shown) | 7.89

Could you now consider this next molecule?
Given the molecule `C[C@H]1CCCN1C(=O)c1nc(C(=O)NC[C@@H](O)CO)sc1-c1cnc(NC(C)(C)C)cc1C(F)(F)F` , what is its reported pIC50?
7.20
